System: 3D7
Experiment: qHTS profiling for inhibitors of Plasmodium falciparum proliferation (AID 504749); further: nearly all actives have a fitted effect of over 60% in size
Settings: P. falciparum in erythrocytes, SYBR Green DNA, 72 h; series mostly up to 28.7 µM
Inconclusive results are not listed. Activity calls are given as the source filed them. The call rests on the fitted dose curve; in most records, active means well fitted inhibition curve with a large enough effect; inconclusive means small, poorly fitted or top-dose-only effect; inactive means flat fitted curve, though single readings scatter.
Entry note: the call must match one of active, inactive

Query: Name the outcome recorded for CC1OC(OC2CCC3(C)C(CCC4C3CC(O)C3(C)C(C5=CC(=O)OC5)CCC43O)C2)CC(O)C1OC1CC(O)C(OC2CC(O)C(OC3OC(CO)C(O)C(O)C3O)C(C)O2)C(C)O1 (centres undefined) in the assay.
Response: inactive

Query: Name the outcome recorded for CCCCCCCCCCCC(=O)OCC(O)C1OCC(O)C1O (centres undefined) in the assay.
Response: inactive

Query: Name the outcome recorded for Cc1c(C)c2c(c(C)c1O)CCC(C)(CCCC(C)CCCC(C)CCCC(C)C)O2 (centres undefined) in the assay.
Response: inactive

Query: Name the outcome recorded for C=C[C@@]1(C)C[C@H](OC(=O)CSC(C)(C)CNC(=O)[C@@H](N)C(C)C)[C@@]2(C)C(C)CC[C@@]3(CCC(=O)[C@@H]32)[C@H](C)[C@H]1O (some centres undefined) in the assay.
Response: active

Query: Name the outcome recorded for CC1(C(=O)O)CCC2(C)CCC3(C)C(=CC(=O)C4C5(C)CCC(O)C(C)(C)C5CCC43C)C2C1 (centres undefined) in the assay.
Response: inactive

Query: Name the outcome recorded for C=CCn1c(=O)n(C2OC(CO)C(O)C2O)c2nc(N)[nH]c(=O)c21 (centres undefined) in the assay.
Response: inactive

Query: Name the outcome recorded for CO/N=C(/C(=O)N[C@@H]1C(=O)N2C(C(=O)O)=C(CSC(=O)c3ccco3)CSC12)c1csc(N)n1 (some centres undefined) in the assay.
Response: inactive

Query: Name the outcome recorded for NC(=O)C1CC2(NC(=O)NC2=O)c2cc(F)ccc2O1 (centres undefined) in the assay.
Response: inactive

Query: Name the outcome recorded for CC[C@@H](C)C(N)C(=O)O (some centres undefined) in the assay.
Response: inactive

###

Assay: MultiTox-Fluor Cytotoxicity Assay - LYMP1-003 - Dead Cells (AID 961);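 further: cells exposed to compound for 16 h at 37 °C; nearly all actives have a fitted effect of over 70% in size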; further: potency means the concentration at half of the fitted maximal effect
Settings: LYMP1-003 lymphoblastoid cells, dead-cell protease fluorescence; series mostly up to 92.2 µM
Active and inactive are the calls of the source. The call rests on the fitted dose curve; in most records, active means well fitted cell-killing curve with a large enough effect; inconclusive means small, poorly fitted or top-dose-only effect, or effect the other way; inactive means flat fitted curve, though single readings scatter.
measurement name: Potency

>>> value("O=C1OC(O)C(C(Cl)Cl)=C1Cl (stereo not drawn)")
"63.1 µM (active)"
>>> value("c1ccc2c(c1)ccc1cc3c(ccc4ccccc43)cc12")
"inactive"
>>> value("Nc1ccc2cc3ccccc3cc2c1")
"inactive"

###

Test: AP1 Signaling Pathway (AID 357);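 further: ME-180 reporter cells stimulated with EGF at its EC50 level; on the % scale 0 is the no-effect control and ±100 the full control effect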
Settings: ME-180 AP-1-bla reporter, EGF-induced, beta-lactamase ratio, 5 h; at 17.2 µM (top of the series) unless noted
Results filed as inconclusive are left out.
This section presents molecules with their documented activity change, negative = inhibition values.
Numbers only; they are read as %.

Please review the following examples before continuing.
>>> value("O=C(CCN1CCc2ccccc21)c1ccc2c(c1)OCCO2")
7.14
>>> value("CCCCOc1nc2ccccc2nc1C(C#N)C(=O)NC1CCCCC1 (stereo unspecified)")
8.43
>>> value("CCCCOc1ccc(C(=O)N2CCCC2C(=O)O)cc1 (stereo unspecified)")
-0.0169
>>> value("CC(=O)c1cc(C#N)c(SCc2ccncc2)nc1C")
-9.02
>>> value("CCCN(CCC)c1nc2ccccc2nc1C(C#N)C(=O)OC(C)COC (stereo unspecified)")
-15.4

Please look at the following molecule next.
Query: Identify measured activity change, negative = inhibition associated with `COC(=O)c1ccc(C(=O)OC)c(NC(=O)c2cc3ccccc3o2)c1`
Response: -4.57

###

Assay: AP1 Signaling Pathway (AID 357);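 further: ME-180 reporter cells stimulated with EGF at its EC50 level; on the % scale 0 is the no-effect control and ±100 the full control effect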
Settings: ME-180 AP-1-bla reporter, EGF-induced, beta-lactamase ratio, 5 h; at 17.2 µM (top of the series) unless noted
Experimental: NCGC Assay Overview: Activator protein-1 (AP-1), a transcription factor, plays an important role in tumor genesis by regulating genes involved in cell proliferation, differentiation, apoptosis, and angiogenesis. AP-1 activity is induced by a complex network of signaling pathways that involves extracellular signals, such as growth factors. […] Library compounds were measured for their ability to modulate positively or negatively the action of EC50 EGF on reporter gene activity. […]
Inconclusive results are not listed.
measurement name: activity change, negative = inhibition (%)
Numbers only; they are read as %.

>>> value("CC1(C)CC(=O)C(C=Nc2ccc(Cl)cn2)=C(O)C1")
-10.2
>>> value("CCN(CC)CCNc1ncnc2c1[nH]c1ccc(OC)cc12")
7.05
>>> value("Cc1cc(N2C(=O)C(=O)/C(=C(/O)c3ccccc3)C2c2cccs2)no1 (centres undefined)")
-22.3

Please look at the following compound next.
Query: Identify measured activity change, negative = inhibition associated with `C[N+]1(CCNC(=O)/C=N/O)CCCCC1`
Response: 7.1

###

Assay: AP1 Signaling Pathway (AID 357);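 further: ME-180 reporter cells stimulated with EGF at its EC50 level; on the % scale 0 is the no-effect control and ±100 the full control effect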
Conditions: ME-180 (cervical carcinoma) AP-1-bla reporter, EGF-induced, beta-lactamase ratio, 5 h; at 17.2 µM (top of the series) unless noted
Records with an inconclusive call do not appear.
measurement name: activity change, negative = inhibition (%)
Numbers only; they are read as %.

>>> value("CSCCC(CO)NC(=O)OCc1ccccc1 (centres undefined)")
0.666
>>> value("O=C(O)c1ccc(COc2c(F)c(F)c(F)c(F)c2F)o1")
4.64
>>> value("CCOC(=O)c1c(C)n(C)c2ccc(OC)c(NC(=O)CN3CCN(Cc4ccccc4)CC3)c12")
-11
>>> value("CCOC(=O)c1[nH]c2cc3c(cc2c1NC(=O)CN1CC(C)CC(C)C1)OCO3 (centres undefined)")
-14.1
>>> value("CCOC(=O)c1cc2c(=O)n3ccccc3nc2n(Cc2ccccc2Cl)c1=N")
-18.6
>>> value("CCSc1nc(O)c(C2OC(=O)c3c2ccc(OC)c3OC)c(=O)n1-c1ccccc1 (centres undefined)")
-10.9

Query: Identify measured activity change, negative = inhibition associated with `CN(CCCCCC(=O)/C=N/O)Cc1ccccc1`
Response: 26.2

Query: Identify measured activity change, negative = inhibition associated with `Cc1ccc(OCC(=O)NCC(=O)n2nc(C)cc2C)cc1`
Response: -4.61

Query: Identify measured activity change, negative = inhibition associated with `CC1(C)Cc2c(c(-c3ccco3)[nH]c(=O)c2C#N)CS1`
Response: -2.31

###

This section presents molecules with their documented activity change, negative = inhibition values.
Experiment: NFAT Signaling Pathway (AID 444);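 further: carbachol stimulus at about its EC50 of 1 µM final; on the % scale 0 is the no-effect control and ±100 the full control effect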
Details: Jurkat NFAT-bla M1, carbachol, beta-lactamase ratio, 5 h; at 17.2 µM (top of the series) unless noted
Inconclusive results are not listed.
Numbers only; they are read as %.

Please review the following examples before continuing.
>>> value("C=CCn1c(=N)c(C(=O)OCC)cc2c(=O)n3cccc(C)c3nc21")
-23.4
>>> value("COc1ccc(C2=CC(c3cccc(OC)c3)n3nnnc3N2)cc1 (configuration not stated)")
1.4
>>> value("CSc1cc(C)nc(N(C)C(C)=O)n1")
-4.07

Query: Identify measured activity change, negative = inhibition associated with `Cc1cc(OCC(=O)Nn2cnnc2)ccc1Br`
Response: -7.1

Query: Identify measured activity change, negative = inhibition associated with `COc1ccc(-c2nn3c(COc4ccccc4)nnc3s2)cc1OC`
Response: 6.83

Query: Identify measured activity change, negative = inhibition associated with `Cc1nnc(SCC(=O)N2CCOCC2)c2ccccc12`
Response: 3.16

###

Experiment: qHTS profiling for inhibitors of Plasmodium falciparum proliferation (AID 504749); further: nearly all actives have a fitted effect of over 60% in size;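 on activity, negative = inhibition: 0% = DMSO vehicle and full inhibition = artemisinin control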
Settings: P. falciparum in erythrocytes, SYBR Green DNA, 72 h; at 28.7 µM (top of the series); parasite line A
Inconclusive results are not listed.
measurement name: activity, negative = inhibition (%)
Numbers only; they are read as %.

Please review the following examples before continuing.
>>> value("CN(C)CC/C=C1\\c2ccccc2COc2ccc(CC(=O)O)cc21")
1.27
>>> value("CC1(C)O[C@@H]2C[C@H]3[C@@H]4CCC5=CC(=O)C=C[C@]5(C)[C@H]4C(O)C[C@]3(C)[C@]2(C(=O)CO)O1 (some centres not stated)")
-12.4
>>> value("CO/N=C(/C(=O)N[C@@H]1C(=O)N2C(C(=O)O)=C(CSc3nnnn3C)CS[C@H]12)c1csc(N)n1")
6.68
>>> value("CCCCC/C(C=O)=C/c1ccccc1")
-0.781
>>> value("N#C/C(=C1/SCC(c2ccccc2Cl)S1)n1ccnc1 (configuration not stated)")
-5.78

Query: Identify measured activity, negative = inhibition associated with CC12C=CC(=O)C=C1[C@@H](F)CC1C2C(O)CC2(C)C1CC[C@]2(O)C(=O)CO (some centres not stated)
Response: 4.43

Query: Identify measured activity, negative = inhibition associated with `C[C@@](Cc1ccccc1)(NC(=O)CN)c1ccccc1`
Response: 17.9

Query: Identify measured activity, negative = inhibition associated with C/C1=C2/[N-]C(C(CC(N)=O)[C@@]2(C)CCC(=O)NCC(C)OP(=O)([O-])O[C@H]2[C@@H](O)[C@@H](n3cnc4cc(C)c(C)cc43)O[C@@H]2CO)[C@]2(C)N=C(/C(C)=C3N=C(/C=C4N=C1C(CCC(N)=O)C\4(C)C)[C@@H](CCC(N)=O)[C@]\3(C)CC(N)=O)[C@@H](CCC(N)=O)[C@]2(C)CC(N)=O.CC(=O)O.[Co] (some centres not stated)
Response: -2.13

Data origin: PubChem BioAssay (NCATS)
